A set of molecules tested on UniProtKB Q02127, with measured pIC50:
pIC50: −log10 of the molar value.
Measure name: pIC50

A: Cc1n[nH]c(Cl)c1-c1cc(C(C)C)c2cc(-c3nc(C(C)(C)O)n(C)n3)c(F)cn2c1=O [WO2022070071, Example 5]
B: Cc1ccnc(Cl)c1-c1cc(C(C)C)c2cc(-c3nc(C(C)(C)O)n(C)n3)c(F)cn2c1=O [WO2022070071, Example 9]
Task item: Choose between A and B : whose measured pIC50 value is numerically larger? // respond with label for picked entry
Reply: A
(A: 8.68, B: 7.89)
